residual activity listing for selected molecules.
# systemUnderTest: Serine/threonine-protein kinase Nek6 (Homo sapiens) (UniProt Q9HC98)
# Sequence (Q9HC98 whole entry): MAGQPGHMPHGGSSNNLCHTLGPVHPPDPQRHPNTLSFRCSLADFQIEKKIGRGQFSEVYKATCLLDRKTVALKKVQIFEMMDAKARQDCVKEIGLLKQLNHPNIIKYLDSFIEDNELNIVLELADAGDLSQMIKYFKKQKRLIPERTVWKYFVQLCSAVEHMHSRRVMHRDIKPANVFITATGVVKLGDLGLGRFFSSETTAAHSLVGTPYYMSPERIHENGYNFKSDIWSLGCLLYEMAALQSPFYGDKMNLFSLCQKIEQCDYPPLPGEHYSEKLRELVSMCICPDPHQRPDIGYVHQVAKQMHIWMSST
# conditions: at 10 µM
# Description: Millipore: Percentage of residual kinase activity of NEK6 at 10uM relative to control. Control inhibitor: Phosphoric acid* at 0.3uM. Buffer: 8 mM MOPS pH 7.0, 0.2 mM EDTA

{"columns": ["molecule", "systemUnderTest", "resultUnit", "residual activity"],
 "data": [
  ["O=C(Nc1cccc(Nc2nccc(Nc3cccc(C(F)(F)F)c3)n2)c1)C1CC1", "Serine/threonine-protein kinase Nek6 (Homo sapiens) (UniProt Q9HC98)", "%", 105],
  ["CN(C)c1ccc(/C=C2\\C(=O)Nc3ccccc32)cc1", "Serine/threonine-protein kinase Nek6 (Homo sapiens) (UniProt Q9HC98)", "%", 107],
  ["O=C1NC(=O)c2c1c1c3ccccc3[nH]c1c1[nH]c3cc(Br)ccc3c21", "Serine/threonine-protein kinase Nek6 (Homo sapiens) (UniProt Q9HC98)", "%", 117],
  ["Cn1cnc2cc3c(Nc4cccc(Br)c4)ncnc3cc21", "Serine/threonine-protein kinase Nek6 (Homo sapiens) (UniProt Q9HC98)", "%", 104],
  ["CCN(CC)CCCCN1c2ccccc2Oc2ccc(Cl)cc21", "Serine/threonine-protein kinase Nek6 (Homo sapiens) (UniProt Q9HC98)", "%", 113],
  ["O=c1cc(-c2cccc3c2Sc2ccccc2S3)oc(N2CCOCC2)c1", "Serine/threonine-protein kinase Nek6 (Homo sapiens) (UniProt Q9HC98)", "%", 122],
  ["O=C1NC(=O)/C(=C/c2ccc3c(c2)OC(F)(F)O3)S1", "Serine/threonine-protein kinase Nek6 (Homo sapiens) (UniProt Q9HC98)", "%", 93],
  ["Cc1cc(Nc2nc(-c3ccccc3)nc3ccccc23)n[nH]1", "Serine/threonine-protein kinase Nek6 (Homo sapiens) (UniProt Q9HC98)", "%", 105],
  ["COc1cc2ncc(-c3ccccc3)nc2cc1OC", "Serine/threonine-protein kinase Nek6 (Homo sapiens) (UniProt Q9HC98)", "%", 89],
  ["CC(C)n1cnc2/c(=N/c3cccc(Cl)c3)nc(NCCO)[nH]c21", "Serine/threonine-protein kinase Nek6 (Homo sapiens) (UniProt Q9HC98)", "%", 98],
  ["CC#CC(=O)Nc1cc2c(Nc3ccc(F)c(Cl)c3)ncnc2cn1", "Serine/threonine-protein kinase Nek6 (Homo sapiens) (UniProt Q9HC98)", "%", 91],
  ["O=C(Nc1cccc(Nc2cc(Nc3cccc(C(F)(F)F)c3)ncn2)c1)C1CC1", "Serine/threonine-protein kinase Nek6 (Homo sapiens) (UniProt Q9HC98)", "%", 126],
  ["COc1ccc(CNc2nc(N(CCO)CCO)nc3c2ncn3C(C)C)cc1", "Serine/threonine-protein kinase Nek6 (Homo sapiens) (UniProt Q9HC98)", "%", 96],
  ["COc1cc2ncnc(Nc3ccc(Oc4ccccc4)cc3)c2cc1OC", "Serine/threonine-protein kinase Nek6 (Homo sapiens) (UniProt Q9HC98)", "%", 118],
  ["CO[C@H]1C[C@@H]2CC[C@@H](C)[C@@](O)(O2)C(=O)C(=O)N2CCCC[C@H]2C(=O)O[C@H]([C@H](C)C[C@@H]2CC[C@@H](O)[C@H](OC)C2)CC(=O)[C@H](C)/C=C(\\C)[C@@H](O)[C@@H](OC)C(=O)[C@H](C)C[C@H](C)/C=C/C=C/C=C/1C", "Serine/threonine-protein kinase Nek6 (Homo sapiens) (UniProt Q9HC98)", "%", 118],
  ["CC(=O)O/N=C1\\C(=C2\\C(=O)Nc3cc(Br)ccc32)Nc2ccccc21", "Serine/threonine-protein kinase Nek6 (Homo sapiens) (UniProt Q9HC98)", "%", 110],
  ["CCOc1cc2ncnc(Nc3cccc(Br)c3)c2cc1OCC", "Serine/threonine-protein kinase Nek6 (Homo sapiens) (UniProt Q9HC98)", "%", 125],
  ["Nc1ccc2ncnc(NCCc3ccc(Oc4ccccc4)cc3)c2c1", "Serine/threonine-protein kinase Nek6 (Homo sapiens) (UniProt Q9HC98)", "%", 120],
  ["Cc1ccc(NC2=CC(=O)c3sc(C)nc3C2=O)cc1", "Serine/threonine-protein kinase Nek6 (Homo sapiens) (UniProt Q9HC98)", "%", 104],
  ["O=C1Nc2ccccc2/C1=C1/Nc2ccccc2/C1=N\\OCCC(O)CO (stereo not drawn)", "Serine/threonine-protein kinase Nek6 (Homo sapiens) (UniProt Q9HC98)", "%", 113],
  ["O=c1c2ccccc2[nH]c(=S)n1CCN1CCC(=C(c2ccc(F)cc2)c2ccc(F)cc2)CC1", "Serine/threonine-protein kinase Nek6 (Homo sapiens) (UniProt Q9HC98)", "%", 107],
  ["Cc1ccc(S(=O)(=O)/C=C/C#N)cc1", "Serine/threonine-protein kinase Nek6 (Homo sapiens) (UniProt Q9HC98)", "%", 108],
  ["Cn1cc(/C=C2\\C(=O)Nc3ccc(S(N)(=O)=O)cc32)c2ccccc21", "Serine/threonine-protein kinase Nek6 (Homo sapiens) (UniProt Q9HC98)", "%", 112],
  ["CO[C@@H]1[C@H](N(C)C(=O)c2ccccc2)C[C@H]2O[C@]1(C)n1c3ccccc3c3c4c(c5c6ccccc6n2c5c31)C(=O)NC4", "Serine/threonine-protein kinase Nek6 (Homo sapiens) (UniProt Q9HC98)", "%", 92],
  ["Nc1nc(Nc2ccc(S(N)(=O)=O)cc2)nn1C(=S)Nc1c(F)cccc1F", "Serine/threonine-protein kinase Nek6 (Homo sapiens) (UniProt Q9HC98)", "%", 44],
  ["Ic1cccc(CSc2nnc(-c3ccncc3)o2)c1", "Serine/threonine-protein kinase Nek6 (Homo sapiens) (UniProt Q9HC98)", "%", 115],
  ["Cc1cccc(-c2[nH]c(C(C)(C)C)nc2-c2ccc3c(c2)OCO3)n1", "Serine/threonine-protein kinase Nek6 (Homo sapiens) (UniProt Q9HC98)", "%", 107],
  ["O=C1NC(=O)/C(=C\\c2ccc3nccnc3c2)S1", "Serine/threonine-protein kinase Nek6 (Homo sapiens) (UniProt Q9HC98)", "%", 96]
]}

Origin of the recorded values: ChEMBL document CHEMBL2218924
